- Assay text: Bidirectional transport (Papp) across Caco-2 cell monolayer
- Format: in vitro ADME, human
- Test context: human, Caco-2, Caco-2 monolayer, 90 min; read-out: Efflux Ratio (Papp BL→AP to Papp AP→BL)
Lab note: anything with efflux ratio at 90 min, 50 µM at or over 1 counts as rule met; the rest go in rule not met.

Could you tell me if the measured efflux ratio at 90 min, 50 µM of C=CC(C)(C)c1cc(/C=C/C(=O)c2ccc(O)cc2)c(OC)cc1O reaches 1 or more?
rule met

Could you tell me if the measured efflux ratio at 90 min, 50 µM of COc1c(/C=C/C(=O)c2ccc(O)cc2)ccc(O)c1O reaches 1 or more?
rule met

Could you tell me if the measured efflux ratio at 90 min, 50 µM of COc1c(/C=C/C(=O)c2ccc(O)cc2)ccc(O)c1CC=C(C)C reaches 1 or more?
rule met

Could you tell me if the measured efflux ratio at 90 min, 50 µM of COc1cc(O)ccc1/C=C/C(=O)c1ccc(O)cc1 reaches 1 or more?
rule met

Could you tell me if the measured efflux ratio at 90 min, 50 µM of O=C1C[C@@H](c2ccc(O)cc2)Oc2cc(O)ccc21 reaches 1 or more?
rule not met
